- measurementDescription: Clearance in dog at 1 mg/kg, iv
- Type: ADME, organism-based, Canis lupus familiaris
- Design: dose 1 mg/kg, route intravenous
- measurementConditions: in vivo
metric: clearance (mL/min/kg)
Give the value, in units of mL/min/kg, as a plain number.

Exercise: Give the measured clearance of Cc1ncnc(C)c1C(=O)N1C[C@H]2CN(CC[C@H](NC(=O)CC3CCC(F)(F)CC3)c3ccccc3)C[C@H]2C1 .
Key: 44

----------
Assign Papp A→B to each entry below.
- measurementDescription: Permeability from apical to basolateral side of human Caco-2 cells after 21 days
- Assay type: ADME, cell-based
- measurementConditions: read-out: permeability
Give the value, in units of ×10⁻⁶ cm/s, as a plain number.

Exercise: Give the measured Papp A→B of COc1cc(C)c(C(=O)N2C[C@H]3CN(CC[C@H](NC(=O)C4CCCC4)c4ccccc4)C[C@H]3C2)c(C)c1 .
Key: 33

Exercise: Give the measured Papp A→B of Cc1cc(C#N)nc(C)c1C(=O)N1C[C@H]2CN(CC[C@H](NC(=O)C3CCCC3)c3ccccc3)C[C@H]2C1 .
Key: 3

Exercise: Give the measured Papp A→B of Cc1ccnc(C)c1C(=O)N1C[C@H]2CN(CC[C@H](NC(=O)C3CCCC3)c3ccccc3)C[C@H]2C1 .
Key: 4

Exercise: Give the measured Papp A→B of Cc1ncnc(C)c1C(=O)N1C[C@H]2CN(CC[C@H](NC(=O)C3CCCC3)c3ccccc3)C[C@H]2C1 .
Key: 1.3

Exercise: Give the measured Papp A→B of Cc1cccc(C)c1C(=O)N1C[C@H]2CN(CC[C@H](NC(=O)C3CCCC3)c3ccccc3)C[C@H]2C1 .
Key: 4

Exercise: Give the measured Papp A→B of Cc1cc(=O)[nH]c(C)c1C(=O)N1C[C@H]2CN(CC[C@H](NC(=O)C3CCCC3)c3ccccc3)C[C@H]2C1 .
Key: 0.5

Exercise: Give the measured Papp A→B of Cc1cc[n+]([O-])c(C)c1C(=O)N1C[C@H]2CN(CC[C@H](NC(=O)C3CCCC3)c3ccccc3)C[C@H]2C1 .
Key: 0.1
